# Minimum bacteriostatic concentration values compiled below
# Test system: Carbapenem-resistant Acinetobacter baumannii CR-AB 18-184
# protocolNotes: MIC by microbroth dilution method, CR-AB 18-184
# Type: cell-based
# conditionSummary: strain CR-AB 18-184; 37° C., 20-22 hours
valueType: Minimum bacteriostatic concentration (µg/mL)

1. CC(C)(O/N=C(\C(=O)N[C@@H]1C(=O)N2C(C(=O)[O-])=C(C[n+]3ccccc3)CS[C@H]12)c1csc(N)n1)C(=O)O [Ceftazidime] : 128
2. C=C[C@@]1(C)C[C@H](OC(=O)COC(=O)c2cc(O)c3c(c2)C(=O)c2cccc(O)c2C3=O)[C@]2(C)C3C(=O)CC[C@]3(CC[C@@H]2C)[C@H](C)[C@H]1O (stereo partly shown) [Pleuromulin rhein ester] : 64

* * *

Minimum bacteriostatic concentration values for the compounds below.
# System: Carbapenem-resistant Acinetobacter baumannii CR-AB 18-560
# protocolNotes: MIC by microbroth dilution method, CR-AB 18-560
# Assay type: cell-based
# conditionSummary: strain CR-AB 18-560; 37° C., 20-22 hours
valueType: Minimum bacteriostatic concentration

1. O=C(O)c1cc(O)c2c(c1)C(=O)c1cccc(O)c1C2=O : >128 µg/mL
2. C=C[C@@]1(C)C[C@H](OC(=O)COC(=O)c2cc(O)c3c(c2)C(=O)c2cccc(O)c2C3=O)[C@]2(C)C3C(=O)CC[C@]3(CC[C@@H]2C)[C@H](C)[C@H]1O (stereo partly shown) : >128 µg/mL
3. C=C[C@]1(C)C[C@@H](OC(=O)CO)[C@]2(C)[C@H](C)CC[C@]3(CCC(=O)[C@H]32)[C@@H](C)[C@@H]1O : >128 µg/mL
4. CC(C)(O/N=C(\C(=O)N[C@@H]1C(=O)N2C(C(=O)[O-])=C(C[n+]3ccccc3)CS[C@H]12)c1csc(N)n1)C(=O)O : 128 µg/mL
